Listed here: items and their measured kon.
molecular target: His-tagged cynomolgus monkey IGF1R protein (ACRO Biosystems Inc., Cat #: IGR-C5225) (cynomolgus monkey); experiment: SPR (Biacore 8K), antibody captured on Protein A chip, antigen as analyte, 1:1 model
Quantity Measured: kon (M⁻¹ s⁻¹)

[[record]]
binder = "anti-IGF1R antibody 10G1 (antibody, human IgG1, V domains shown) VH: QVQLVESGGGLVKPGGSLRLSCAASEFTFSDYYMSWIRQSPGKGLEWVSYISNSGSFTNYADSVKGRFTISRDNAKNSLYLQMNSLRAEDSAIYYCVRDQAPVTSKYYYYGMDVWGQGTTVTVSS VL: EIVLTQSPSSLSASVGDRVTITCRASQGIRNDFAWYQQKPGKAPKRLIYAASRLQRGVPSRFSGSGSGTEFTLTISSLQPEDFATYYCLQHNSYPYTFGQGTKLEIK"
quantity_measured = "kon"
test_result = 27600

[[record]]
binder = "anti-IGF1R antibody 12A4 (antibody, V domains shown) VH: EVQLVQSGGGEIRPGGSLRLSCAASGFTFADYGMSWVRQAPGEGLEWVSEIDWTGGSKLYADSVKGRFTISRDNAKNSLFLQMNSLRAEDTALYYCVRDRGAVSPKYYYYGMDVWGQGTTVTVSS VL: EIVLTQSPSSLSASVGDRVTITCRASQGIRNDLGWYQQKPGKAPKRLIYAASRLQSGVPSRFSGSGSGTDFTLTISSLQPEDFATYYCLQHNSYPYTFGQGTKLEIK"
quantity_measured = "kon"
test_result = 18400

[[record]]
binder = "anti-IGF1R antibody 12D1 (antibody, human IgG1, V domains shown) VH: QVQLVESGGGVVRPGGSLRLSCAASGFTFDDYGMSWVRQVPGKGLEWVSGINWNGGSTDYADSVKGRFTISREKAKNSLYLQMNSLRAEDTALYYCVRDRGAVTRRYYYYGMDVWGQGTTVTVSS VL: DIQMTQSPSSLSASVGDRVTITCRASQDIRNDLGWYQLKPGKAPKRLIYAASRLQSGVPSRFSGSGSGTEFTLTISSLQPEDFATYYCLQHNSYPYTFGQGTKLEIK"
quantity_measured = "kon"
test_result = 6450

[[record]]
binder = "anti-IGF1R antibody 10D1 (antibody, human IgG1, V domains shown) VH: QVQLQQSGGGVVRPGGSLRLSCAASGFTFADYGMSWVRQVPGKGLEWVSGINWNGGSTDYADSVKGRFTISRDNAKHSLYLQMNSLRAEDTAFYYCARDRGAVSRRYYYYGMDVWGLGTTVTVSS VL: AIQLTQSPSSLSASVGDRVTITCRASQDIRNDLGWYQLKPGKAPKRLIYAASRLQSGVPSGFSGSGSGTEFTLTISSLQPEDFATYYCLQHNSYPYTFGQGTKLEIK"
quantity_measured = "kon"
test_result = 8360

